Values from ChEMBL document CHEMBL4425194

# method.description: Solubility of the compound in JP1 at pH 1.2
# Type: physicochemical
# conditions.used: JP1, pH 1.2
endpoint.label: solubility (µg/mL)
Give the value, in units of µg/mL, as a plain number.

Query: I'd like to know its solubility. The molecule in question is `COC(=O)c1c(F)cccc1-c1ccc(CCc2ncc(CC(C)(C)C)n2CC(=O)O)cc1`
Response: 730
